biological target: TDRD3 (aa 520–633) (human, UniProt Q9H7E2 520-633); experiment: ITC
Square brackets hold non-standard residues; d marks the D form. Ends that are not written are not given here. Arg(Me2a) = CN(C)C(=N)NCCC[C@H](N)C(=O)O
quantity: Kd

QUERY: Using the record for TG[Arg(Me2a)]ARARA [PIWIL1_R4me2a peptide (TGRme2aARARA)] , state its measured Kd.
RESULT: > 500 µM
